The measured values listed here are drawn from patent US20050069542A1.

# Target Or System: T1, flag-tagged soluble TL3 (amino acids 105-251 of SEQ ID NO:234) (Homo sapiens (Human), UniProt O75888 105-250)
# T1 construct: Heterologous flag-tagged control protein, immobilized in the ELISA; also called flagged tagged TL-3; not shown: Flag tag
# T1 sequence: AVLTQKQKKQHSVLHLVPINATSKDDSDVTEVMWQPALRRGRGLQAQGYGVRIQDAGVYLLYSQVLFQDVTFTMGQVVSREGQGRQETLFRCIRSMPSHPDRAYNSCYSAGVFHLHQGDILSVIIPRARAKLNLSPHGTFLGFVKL
# Method Notes: phage ELISA on immobilized flag-tagged soluble TL3
Reported Metric: binding result

GMCC110 (scFv) scFv: QVQLQESGPGLVKPSQTLSLTCTVSGASISSGGYRWIWIRQHPGQGLEWIGDIHYSGSTQYNPSLKSRVALTLDRSKNQFSLQLSSVTAADTAVYYCARDPRGHTYGYGYYFDYWGKGTLVTVSSGGGGSGGGGSGGGGSALSSELTQDPDVSVALGQTVTITCQGDRLRRYYASWYQQKPGQAPVLVIFRKNNRPSGIPDRFSGSSSGDTASLTITGAQAEDEADYYCNSRDTSGTLSFGGGTQLTVLS = no binding
GMBC665 (scFv) scFv: EVQLVETGGGLVKPGGSLRLSCAASGFTFSDAWMNWVRQAPGKGLEWVGRIKSKGSGGTIDYAAPVKDRFTISRDDSKNTLYLQMNSLKTEDTALYYCTWDWDFYYGMNVWGQGTMVTVSSGGGGSGGGGSGGGGSSELTQDPAVSVALGQTVRITCQGDSLRSYYASWYQQKPGQAPVLVIYGKNNRPSGIPDRFSGSSSGNTASLTITGAQAEDEADYYCNSRDSSGNHVVFGGGTKLTVLG = no binding
GMBC606 (scFv) scFv: EVQLVQSGGGVVQPGGSLRLSCAASGFTFSSYGMHWVRQAPGKGLEWVAFIRYDGSNKYYADSVKGRFTISRDNSKNTLYLQMNSLRAEDTAVYYCAKSSSFANAFDIWGQGTTVTVSSGGGGSGGGGSGGGGSSELTQDPAVSVALGQTVRITCQGDSLRSYYASWYQQKPGQAPVLVIYGKNNRPSGIPDRFSGSSSGNTASLTITGAQAEDEADYYCNSRDSSGNHVVFGGGTKLTVLG = no binding
